Listed here are binders together with their documented Neutralizing activity (%) at 250 µg/ml.
# MEASURED_ON: Influenza virus A/Brisbane/59/2007 (H1N1) (Influenza A virus A/Brisbane/59/2007 (H1N1))
# ASSAY_PROTOCOL: cell-based or functional assay
Return type: number; implicit unit %.

[
  {
    "BINDER": "Group 47 representative clone F083-308, Fab-PP-type antibody (Fab, V domains shown) VH: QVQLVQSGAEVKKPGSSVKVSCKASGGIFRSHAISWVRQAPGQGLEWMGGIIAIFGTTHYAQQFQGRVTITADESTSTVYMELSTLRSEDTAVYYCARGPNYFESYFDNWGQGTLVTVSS VL: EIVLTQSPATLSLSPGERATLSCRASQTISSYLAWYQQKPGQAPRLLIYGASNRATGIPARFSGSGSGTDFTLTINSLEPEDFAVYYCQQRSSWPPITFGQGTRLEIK",
    "Neutralizing activity (%) at 250 µg/ml": 100
  },
  {
    "BINDER": "Group 37 representative clone F083-311, Fab-PP-type antibody (Fab, V domains shown) VH: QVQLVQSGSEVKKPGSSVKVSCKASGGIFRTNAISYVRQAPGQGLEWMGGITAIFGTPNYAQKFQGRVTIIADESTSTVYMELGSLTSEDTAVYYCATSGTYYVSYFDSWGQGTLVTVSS VL: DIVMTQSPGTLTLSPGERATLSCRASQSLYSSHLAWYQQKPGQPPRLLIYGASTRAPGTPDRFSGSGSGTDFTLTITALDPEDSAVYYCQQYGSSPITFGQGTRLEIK",
    "Neutralizing activity (%) at 250 µg/ml": 100
  },
  {
    "BINDER": "Group 36 representative clone F082-243, Fab-PP-type antibody (Fab, V domains shown) VH: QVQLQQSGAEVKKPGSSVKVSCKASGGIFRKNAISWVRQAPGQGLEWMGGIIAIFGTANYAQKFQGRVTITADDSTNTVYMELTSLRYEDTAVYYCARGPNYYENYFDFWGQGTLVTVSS VL: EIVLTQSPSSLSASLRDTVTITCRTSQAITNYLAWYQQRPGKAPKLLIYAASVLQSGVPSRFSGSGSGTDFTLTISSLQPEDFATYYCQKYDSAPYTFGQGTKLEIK",
    "Neutralizing activity (%) at 250 µg/ml": 94.1
  },
  {
    "BINDER": "Group 48 representative clone F083-389, Fab-PP-type antibody (Fab, V domains shown) VH: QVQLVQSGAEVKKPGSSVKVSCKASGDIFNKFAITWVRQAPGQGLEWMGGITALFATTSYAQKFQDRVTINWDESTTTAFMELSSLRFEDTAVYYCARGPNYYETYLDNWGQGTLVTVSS VL: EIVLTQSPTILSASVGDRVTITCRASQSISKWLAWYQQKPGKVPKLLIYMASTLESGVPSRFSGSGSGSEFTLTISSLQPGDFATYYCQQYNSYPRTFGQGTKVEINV",
    "Neutralizing activity (%) at 250 µg/ml": 100
  }
]

// field: Neutralizing activity (%) at 250 µg/ml; key: Group 39 representative clone F082-237, Fab-PP-type antibody (Fab, V domains shown) VH: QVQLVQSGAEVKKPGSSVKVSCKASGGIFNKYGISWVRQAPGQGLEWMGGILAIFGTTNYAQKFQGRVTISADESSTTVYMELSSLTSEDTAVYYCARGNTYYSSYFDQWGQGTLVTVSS VL: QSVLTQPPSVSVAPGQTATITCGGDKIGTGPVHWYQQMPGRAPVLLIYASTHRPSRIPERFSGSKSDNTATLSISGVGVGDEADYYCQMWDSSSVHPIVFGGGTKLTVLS ; value = 64.5
